Where do the numbers come from? From patent US20250235545A1.

- System: colo320 colorectal cancer tumor model
- reported.conditions: 15 mg/kg once a week for four weeks; Table 8
Where a SMILES comes first, the peptide text is derived from it. The star is where a group is joined. X4 = CCCN(CCc1c2c(nc3ccccc13)-c1cc3c(c(=O)n1C2)COC(=O)[C@]3(O)CC)*; X5 = CC[C@@]1(O)C(=O)OCc2c1cc1n(c2=O)Cc2c-1nc1ccccc1c2CCN(CC(C)C)*; X3 = CC[C@@]1(O)C(=O)OCc2c1cc1n(c2=O)Cc2c-1nc1ccccc1c2CCN(C1CC1)*; Propanoyl(3-maleimido) = O=C1C=CC(=O)N1CCC(=O)*; PEG6 = NCCOCCOCCOCCOCCOCCOCCC(=O)O
measure.name: Mouse weight (%)

Examples with their reported Mouse weight (%) follow.
Query: # return recorded Mouse weight (%) for entry CC[C@@]1(O)C(=O)OCc2c1cc1n(c2=O)Cc2c-1nc1ccccc1c2CCN(C(=O)[C@H](CC(C)C)NC(=O)[C@H](CC(N)=O)NC(=O)[C@H](C)NC(=O)[C@H](C)NC(=O)CCOCCOCCOCCOCCOCCOCCNC(=O)CCN1C(=O)C=CC1=O)C1CC1 [MI-6PEG-AANL-D6] ({Propanoyl(3-maleimido)-PEG6}-AANL-X3)
Response: +25%

Query: # return recorded Mouse weight (%) for entry CC[C@@]1(O)C(=O)OCc2c1cc1n(c2=O)Cc2c-1nc1ccccc1c2CCN(CC(C)C)C(=O)[C@H](CC(C)C)NC(=O)[C@H](CC(N)=O)NC(=O)[C@H](C)NC(=O)[C@H](C)NC(=O)CCOCCOCCOCCOCCOCCOCCNC(=O)CCN1C(=O)C=CC1=O [MI-6PEG-AANL-D5] ({Propanoyl(3-maleimido)-PEG6}-AANL-X5)
Response: +19%

Moving on to the next compound.
Query: # return recorded Mouse weight (%) for entry CCCN(CCc1c2c(nc3ccccc13)-c1cc3c(c(=O)n1C2)COC(=O)[C@]3(O)CC)C(=O)[C@H](CC(C)C)NC(=O)[C@H](CC(N)=O)NC(=O)[C@H](C)NC(=O)[C@H](C)NC(=O)CCOCCOCCOCCOCCOCCOCCNC(=O)CCN1C(=O)C=CC1=O [MI-6PEG-AANL-D3] ({Propanoyl(3-maleimido)-PEG6}-AANL-X4)
Response: +18%

---

- Tested on: sarcoma SJSA-1 tumor model
- measurement.protocol: Efficacy in animal model of sarcoma SJSA-1, 30 mg/kg once a week for two weeks (Example 40)
- Type: in vivo, BALB/c mice
- reported.conditions: 30 mg/kg once a week for two weeks; Day 7
Where a SMILES comes first, the peptide text is derived from it. The star is where a group is joined. X6 = CCCCCN(CCc1c2c(nc3ccccc13)-c1cc3c(c(=O)n1C2)COC(=O)[C@]3(O)CC)*; X5 = CC[C@@]1(O)C(=O)OCc2c1cc1n(c2=O)Cc2c-1nc1ccccc1c2CCN(CC(C)C)*; Propanoyl(3-maleimido) = O=C1C=CC(=O)N1CCC(=O)*; PEG6 = NCCOCCOCCOCCOCCOCCOCCC(=O)O
Please go through the items and note down their SJSA-1 (sarcoma tissue) mean tumor volume (mm^3) Day 7.
Numbers only, in mm^3.

Query: Quote sarcoma SJSA-1 tumor model SJSA-1 (sarcoma tissue) mean tumor volume (mm^3) Day 7 for entry CC[C@@]1(O)C(=O)OCc2c1cc1n(c2=O)Cc2c-1nc1ccccc1c2CCN(CC(C)C)C(=O)[C@H](CC(C)C)NC(=O)[C@H](CC(N)=O)NC(=O)[C@H](C)NC(=O)[C@H](C)NC(=O)CCOCCOCCOCCOCCOCCOCCNC(=O)CCN1C(=O)C=CC1=O [MI-6PEG-AANL-D5] ({Propanoyl(3-maleimido)-PEG6}-AANL-X5) .
Response: 658.17

---
Query: Quote sarcoma SJSA-1 tumor model SJSA-1 (sarcoma tissue) mean tumor volume (mm^3) Day 7 for entry CCCCCN(CCc1c2c(nc3ccccc13)-c1cc3c(c(=O)n1C2)COC(=O)[C@]3(O)CC)C(=O)CNC(=O)[C@H](CC(N)=O)NC(=O)[C@H](C)NC(=O)[C@H](C)NC(=O)CCOCCOCCOCCOCCOCCOCCNC(=O)CCN1C(=O)C=CC1=O [MI-6PEG-AANG-D4] ({Propanoyl(3-maleimido)-PEG6}-AANG-X6) .
Response: 607.62
